Tested on: lipid peroxidation (rat liver homogenate)
Assay: Antioxidant activity, inhibition of iron induced lipid peroxidation in liver homogenate
Assay type: biochemical, Wistar rat
Settings: FeSO4, 37° C., 2 h; <25 μM where IC50 was not determined
pIC50: −log10 of the molar value.
List of pIC50 values.

- molecule: "CCOP(=O)(OCC)C(c1cc(C(C)(C)C)c(O)c(C(C)(C)C)c1)N(CCc1ccccc1)C(C)=O (stereo not drawn) [Compound 53]"
  bound sign: ">"
  pIC50: 4.60
- molecule: "CCOP(=O)(OCC)C(NCc1ccccc1)c1cc(C(C)(C)C)c(O)c(C(C)(C)C)c1 (stereo not drawn) [Compound 12]"
  bound sign: "="
  pIC50: 6.15
- molecule: "CC(=O)N(CCCc1ccccc1)C(c1cc(C(C)(C)C)c(O)c(C(C)(C)C)c1)P(=O)(OC(C)C)OC(C)C (stereo not drawn) [Compound 62]"
  bound sign: ">"
  pIC50: 4.60
- molecule: "CCOP(=O)(OCC)C(c1cc(C(C)(C)C)c(O)c(C(C)(C)C)c1)N(CCOc1ccccc1)C(=O)C(F)(F)F (stereo not drawn) [Compound 57]"
  bound sign: ">"
  pIC50: 4.60
- molecule: "CCOP(=O)(OCC)C(NCCc1ccccc1)c1cc(C(C)C)c(O)c(C(C)C)c1 (stereo not drawn) [Compound 74]"
  bound sign: "="
  pIC50: 5.36
- molecule: "CCOP(=O)(OCC)C(Nc1ccccc1)c1cc(C(C)(C)C)c(O)c(C(C)(C)C)c1 (stereo not drawn) [Compound 3]"
  bound sign: "="
  pIC50: 5.29
- molecule: "CCOP(=O)(OCC)C(NC1CCc2ccccc21)c1cc(C(C)(C)C)c(O)c(C(C)(C)C)c1 (stereo not drawn) [Compound 46]"
  bound sign: "="
  pIC50: 5.42
- molecule: "CCOP(=O)(OCC)C(NC(C)c1cccc2ccccc12)c1cc(C(C)(C)C)c(O)c(C(C)(C)C)c1 (stereo not drawn) [Compound 31]"
  bound sign: ">"
  pIC50: 4.60
- molecule: "COP(=O)(OC)C(NCCc1ccc(Cl)cc1)c1cc(C(C)(C)C)c(O)c(C(C)(C)C)c1 (stereo not drawn) [Compound 16]"
  bound sign: "="
  pIC50: 5.31
- molecule: "CCCCOP(=O)(OCCCC)C(c1cc(C(C)(C)C)c(O)c(C(C)(C)C)c1)N(CCc1ccc(Cl)cc1)C(=O)C(F)(F)F (stereo not drawn) [Compound 55]"
  bound sign: "<"
  pIC50: 4.60
- molecule: "CC(C)OP(=O)(OC(C)C)C(NCCCc1ccccc1)c1cc(C(C)(C)C)c(O)c(C(C)(C)C)c1 (stereo not drawn) [Compound 24]"
  bound sign: ">"
  pIC50: 4.60
- molecule: "CCOP(=O)(OCC)C(NC1CCN(Cc2ccccc2)CC1)c1cc(C(C)(C)C)c(O)c(C(C)(C)C)c1 (stereo not drawn) [Compound 36]"
  bound sign: ">"
  pIC50: 4.60
- molecule: "CCOP(=O)(OCC)C(NCCc1ccc(Cl)cc1)c1cc(C(C)(C)C)c(O)c(C(C)(C)C)c1 (stereo not drawn) [Compound 17]"
  bound sign: "="
  pIC50: 5.28
- molecule: "CCOP(=O)(OCC)C(c1cc(C(C)(C)C)c(O)c(C(C)(C)C)c1)N(C(=O)C(F)(F)F)C(Cc1ccccc1)c1ccccc1 (stereo not drawn) [Compound 56]"
  bound sign: ">"
  pIC50: 4.60
- molecule: "CCCOP(=O)(OCCC)C(NCCc1ccc(Cl)cc1)c1cc(C(C)(C)C)c(O)c(C(C)(C)C)c1 (stereo not drawn) [Compound 18]"
  bound sign: "="
  pIC50: 5.54
- molecule: "CCOP(=O)(OCC)C(Nc1ccc2c(c1)Cc1ccccc1-2)c1cc(C(C)(C)C)c(O)c(C(C)(C)C)c1 (stereo not drawn) [Compound 48]"
  bound sign: ">"
  pIC50: 4.60
- molecule: "CCCCCNC(c1cc(C(C)(C)C)c(O)c(C(C)(C)C)c1)P(=O)(OCC)OCC (stereo not drawn) [Compound 2]"
  bound sign: "="
  pIC50: 5.60
- molecule: "CCOP(=O)(OCC)C(NC(c1ccccc1)c1ccccc1)c1cc(C(C)(C)C)c(O)c(C(C)(C)C)c1 (stereo not drawn) [Compound 32]"
  bound sign: ">"
  pIC50: 4.60
- molecule: "CCOP(=O)(OCC)C(NC1CCCCC1)c1cc(C(C)(C)C)c(O)c(C(C)(C)C)c1 (stereo not drawn) [Compound 65]"
  bound sign: ">"
  pIC50: 4.60
- molecule: "CCOP(=O)(OCC)C(c1cc(C(C)(C)C)c(O)c(C(C)(C)C)c1)N(CCCc1ccccc1)C(=O)C(F)(F)F (stereo not drawn) [Compound 64]"
  bound sign: ">"
  pIC50: 4.60
- molecule: "CCOP(=O)(OCC)C(NCCCc1ccccc1)c1ccc(OC)cc1 (stereo not drawn) [Compound 79]"
  bound sign: "<"
  pIC50: 4.60
- molecule: "CCCCOP(=O)(OCCCC)C(NCCCc1ccccc1)c1cc(C(C)(C)C)c(O)c(C(C)(C)C)c1 (stereo not drawn) [Compound 25]"
  bound sign: ">"
  pIC50: 4.60
- molecule: "CCOP(=O)(OCC)C(NC1CC(C)(C)NC(C)(C)C1)c1cc(C(C)(C)C)c(O)c(C(C)(C)C)c1 (stereo not drawn) [Compound 35]"
  bound sign: "<"
  pIC50: 4.60
- molecule: "CCOP(=O)(OCC)C(Nc1ccc(O)c(C)c1)c1cc(C(C)(C)C)c(O)c(C(C)(C)C)c1 (stereo not drawn) [Compound 5]"
  bound sign: "="
  pIC50: 5.89
- molecule: "CCCCOP(=O)(OCCCC)C(c1cc(C(C)(C)C)c(O)c(C(C)(C)C)c1)N(CCCc1ccccc1)C(C)=O (stereo not drawn) [Compound 63]"
  bound sign: ">"
  pIC50: 4.60
- molecule: "CCOP(=O)(OCC)C(NCCc1ccc(Cl)cc1)c1ccc(O)cc1 (stereo not drawn) [Compound 76]"
  bound sign: "<"
  pIC50: 4.60
- molecule: "CCOP(=O)(OCC)C(NCCc1ccccc1)c1cc(C)c(O)c(C(C)(C)C)c1 (stereo not drawn) [Compound 75]"
  bound sign: "="
  pIC50: 5.32
- molecule: "CCOP(=O)(OCC)C(NC(Cc1ccccc1)c1ccccc1)c1cc(C(C)(C)C)c(O)c(C(C)(C)C)c1 (stereo not drawn) [Compound 33]"
  bound sign: ">"
  pIC50: 4.60
- molecule: "CC(C)OP(=O)(OC(C)C)C(NCCc1ccc(Cl)cc1)c1cc(C(C)(C)C)c(O)c(C(C)(C)C)c1 (stereo not drawn) [Compound 19]"
  bound sign: "="
  pIC50: 5.52
- molecule: "CCOP(=O)(OCC)C(NCCc1ccccc1)c1cc(C(C)(C)C)c(O)c(C(C)(C)C)c1 (stereo not drawn) [Compound 13]"
  bound sign: "="
  pIC50: 5.31
